testedOn: Indoleamine 2,3-dioxygenase 1 (Homo sapiens, UniProt P14902)
Sequence (P14902 whole entry): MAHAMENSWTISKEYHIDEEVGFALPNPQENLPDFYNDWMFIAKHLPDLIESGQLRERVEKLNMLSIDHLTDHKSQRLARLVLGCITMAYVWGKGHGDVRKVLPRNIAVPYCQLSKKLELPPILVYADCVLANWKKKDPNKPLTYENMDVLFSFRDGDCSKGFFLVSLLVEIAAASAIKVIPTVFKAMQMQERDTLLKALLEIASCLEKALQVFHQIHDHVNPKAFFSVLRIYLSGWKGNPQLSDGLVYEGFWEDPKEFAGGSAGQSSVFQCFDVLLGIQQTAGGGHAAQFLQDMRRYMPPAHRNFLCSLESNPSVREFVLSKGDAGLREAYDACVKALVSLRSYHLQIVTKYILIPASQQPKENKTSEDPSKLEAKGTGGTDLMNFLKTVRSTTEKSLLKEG
experimentDescription: Inhibition of IDO1 in IFN-gamma stimulated human HeLa cells assessed as reduction in kynurenine production using L-tryptophan as substrate incubated for 24 hrs
Define the label as yes when IC50 is strictly less than 10 µM and as no in all remaining cases.

Use these answered entries as a reference point.
{"columns": ["compound", "categoryLabel"],
 "data": [
  ["O=C(Cc1ccc([N+](=O)[O-])cc1)N/N=C/c1c(O)ccc2ccccc12", "no"],
  ["Oc1ccc2ccccc2c1/C=N/Nc1nccs1", "no"],
  ["O=C(Cc1ccccc1)N/N=C/c1c(O)ccc2cc([N+](=O)[O-])ccc12", "yes"]
]}

Asked: I wonder whether `COc1cccc(NCc2nnc3n2N=C(c2ccc(Br)cc2)CS3)c1` has IC50 below 10 µM. Can you tell?
Given back: no

Asked: Try the compound `COc1ccc(NC(=O)Cn2cnc3scc(-c4ccc(OC)c(OC)c4)c3c2=O)cc1`
Given back: yes
